molecular target: Indoleamine 2,3-dioxygenase 1 (Homo sapiens); test: Inhibition of human recombinant IDO1 assessed as reduction in kynurenine production using L-tryptophan incubated for 60 mins by Ehrlich's reagent based assay
Sequence (P14902 whole entry): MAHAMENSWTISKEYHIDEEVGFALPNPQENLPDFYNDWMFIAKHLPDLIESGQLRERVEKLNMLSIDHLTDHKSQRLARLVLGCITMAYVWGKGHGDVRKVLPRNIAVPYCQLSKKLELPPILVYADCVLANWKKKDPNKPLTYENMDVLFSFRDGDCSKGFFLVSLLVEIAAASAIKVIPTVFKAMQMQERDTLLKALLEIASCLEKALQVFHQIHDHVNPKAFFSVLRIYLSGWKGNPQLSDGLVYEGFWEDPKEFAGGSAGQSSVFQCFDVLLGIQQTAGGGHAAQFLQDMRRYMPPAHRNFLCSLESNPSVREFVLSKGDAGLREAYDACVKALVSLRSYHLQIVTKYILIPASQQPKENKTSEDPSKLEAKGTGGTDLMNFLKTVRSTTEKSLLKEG
Criterion: IC50 strictly less than 600 nM. Met: 1. Not met: -1.

* O=C(COC(=O)Cc1ccccc1)NCc1cnc2scc(-c3ccc(Br)cc3)n12 | 1
* CN(CC(=O)NCc1cnc2scc(-c3ccc(Br)cc3)n12)C(=O)Cc1ccc([N+](=O)[O-])cc1 | -1
* N#Cc1ccc(NC(=O)NCc2cnc3scc(-c4ccc(Br)cc4)n23)cc1 | 1
* CN(CC(=O)NCc1cnc2scc(-c3ccc(Br)cc3)n12)C(=O)Cc1ccccc1[N+](=O)[O-] | -1
* O=C(COC(=O)Cc1ccc(O)cc1)NCc1cnc2scc(-c3ccc(Br)cc3)n12 | 1
* CN(CC(=O)NCc1cnc2scc(-c3ccc(Br)cc3)n12)C(=O)Cc1cccc([N+](=O)[O-])c1 | -1
* N#Cc1ccc(CC(=O)OCC(=O)NCc2cnc3scc(-c4ccc(Br)cc4)n23)cc1 | 1
* O=C(COC(=O)Cc1ccccc1O)NCc1cnc2scc(-c3ccc(Br)cc3)n12 | -1
* CN(CC(=O)NCc1cnc2scc(-c3ccc(Br)cc3)n12)C(=O)Cc1cccc(O)c1 | 1
* CN(CC(=O)NCc1cnc2scc(-c3ccc(Br)cc3)n12)C(=O)Cc1ccccc1 | -1
